System: Erythrocyte
Test: Hemolytic activity in male Sprague-Dawley rat erythrocytes assessed as concentration required for 10% hemolysis incubated for 1 hr by absorbance based method
Format: toxicity, cell-based
Non-standard residues stand in square brackets, D forms with d. Residues, ends and D or L forms follow the SMILES beside them. *: point of attachment. X1 = NC(=O)[C@H](Cc1c[nH]cn1)NC(=O)CNC(=O)[C@@H](N)CN*; Nspe = C[C@H](NCC(=O)O)c1ccccc1; Nlys = NCCCCNCC(=O)O
reportedMetric: HC10 (µM)

C[C@@H](c1ccccc1)N(CC(=O)NCC(=O)NC[C@H](N)C(=O)NCC(=O)N[C@@H](Cc1c[nH]cn1)C(N)=O)C(=O)CN(CCCCN)C(=O)CN(C(=O)CN(C(=O)CN(CCCCN)C(=O)CN(C(=O)CN(C(=O)CN(CCCCN)C(=O)CN(C(=O)CN(C(=O)CNCCCCN)[C@@H](C)c1ccccc1)[C@@H](C)c1ccccc1)[C@@H](C)c1ccccc1)[C@@H](C)c1ccccc1)[C@@H](C)c1ccccc1)[C@@H](C)c1ccccc1 (H-[Nlys][Nspe][Nspe][Nlys][Nspe][Nspe][Nlys][Nspe][Nspe][Nlys][Nspe]G-X1)	51.1
